Provide the recorded pIC50 for the entries that follow.
- Test system: SMN2 mRNA
- experiment: RT-qPCR splicing assay, SMN2 canonical junction (CJ) mRNA
- Assay type: cell-based, human
- applied.conditions: Homo sapiens; Table 5 panel; canonical junction qPCR; compound concentration having 50% response in CJ decrease; read-out: SMN2 IC50 (decrease in CJ mRNA levels)
pIC50: −log10 of the molar value.

*Q* Value lookup for pIC50; key = Cc1cn2nc(-c3ccc4c(c3)CCN(C3CCNC(C)C3)C4=O)cc(C)c2n1 (stereo not shown) [Compound 327]
*A* 5.00 to 6.00

*Q* Value lookup for pIC50; key = Cc1cn2nc(-c3cc(F)c4c(=O)n(C5CCNCC5)ncc4c3)cc(C)c2n1 [Compound 540]
*A* > 7.00

*Q* Value lookup for pIC50; key = Cc1cn2cc(-c3cc(F)c4c(=O)n([C@H]5CCNC5)ccc4c3)cc(F)c2n1 (single isomer, unassigned) [Compound 396]
*A* > 7.00

*Q* Value lookup for pIC50; key = CNC1CCN(c2ccc3cc(-c4cc(C)c5nc(C)cn5n4)ccn3c2=O)C1 (stereo not shown) [Compound 1158]
*A* > 7.00

*Q* Value lookup for pIC50; key = Cc1cn2cc(-c3cc(F)c4c(=O)n(C5CCNC6(CC6)C5)ccc4c3)cc(F)c2n1 (stereo not shown) [Compound 471]
*A* 6.00 to 7.00

*Q* Value lookup for pIC50; key = CN1CCN(c2ccc3c(=O)n(-c4ccc5cn(C)nc5c4)cnc3c2)CC1 [Compound 178]
*A* < 5.00

*Q* Value lookup for pIC50; key = Cc1cn2cc(-c3cc(F)c4c(=O)n([C@@H]5C[C@@H](C)N[C@@H](C)C5)ccc4c3)cc(F)c2n1 [Compound 642]
*A* > 7.00

*Q* Value lookup for pIC50; key = Cc1cc(-c2ccc3nc(N4CCNCC4)[nH]c(=O)c3c2)cc2cn(C)nc12 [Compound 166]
*A* 5.00 to 6.00

*Q* Value lookup for pIC50; key = CCN1CCC(n2ccc3cc(-c4cc(C)c5nc(C)cn5n4)ccc3c2=O)CC1 [Compound 402]
*A* > 7.00

*Q* Value lookup for pIC50; key = Cc1cn2nc(-c3ccc4c(=O)n(C5CCNCC5)ncc4c3)nc2c(C)n1 [Compound 259]
*A* 6.00 to 7.00

*Q* Value lookup for pIC50; key = Cc1cn2cc(-c3cc(F)c4c(=O)n(C5CCNC5)ccc4c3)cc(C#N)c2n1 (stereo not shown) [Compound 434]
*A* > 7.00

*Q* Value lookup for pIC50; key = Cc1cn2cc(-c3cc(N)c4c(=O)n(C5CCNCC5)cnc4c3)cc(C#N)c2n1 [Compound 364]
*A* < 5.00

*Q* Value lookup for pIC50; key = CCN1CCC(n2ccc3cc(-c4cc(C)c5nn(C)cc5c4)ncc3c2=O)CC1 [Compound 1207]
*A* > 7.00

*Q* Value lookup for pIC50; key = Cc1cn2nc(-c3ccc4c(=O)n(C5CCNCC5)ncc4c3)cc(C)c2n1 [Compound 186]
*A* > 7.00

*Q* Value lookup for pIC50; key = Cc1cn2nc(-c3cc(F)c4c(=O)n([C@@H]5CCN(C)C6(CC6)C5)ncc4c3)cc(C)c2n1 [Compound 637]
*A* > 7.00

*Q* Value lookup for pIC50; key = CNC(=O)c1cc(-c2ccc3c(=O)n(C4CCNCC4)ccc3c2)nn2cc(C)nc12 [Compound 518]
*A* 6.00 to 7.00
